Values were extracted from PubChem BioAssay (NCATS).

- assay procedure: qHTS drug screen for cell cycle checkpoint inhibitors in PARPi-resistant BRCA-mutant ovarian cancer cell lines. (AID 1963452)
- measurement setup: PEO1/OlaR viability, CellTiter-Glo luminescence, 96 h; measured here: PEO1 parental Z-AUC; stronger effect = lower value
Category key, based on recorded Z-AUC: low class (below -0.1), middle class (-0.1 to below 0.5), high class (0.5 or more)

| compound | answer label |
| --- | --- |
| Cc1ccccc1C(=O)Nc1ccc(C(=O)N2CCCC(O)c3cc(Cl)ccc32)c(C)c1 (stereo unspecified) | low class |
| NC1=N[C@H]2[C@H](CS[C@H]2CCCCC(=O)O)N1 | middle class |
| CC(C)c1cnn2c(NCc3ccccc3)cc(NCCCCCCN)nc12 | high class |
| Nc1ccn(C[C@@H](CO)OCP(=O)(O)O)c(=O)n1 | middle class |
| Cc1ccc(-n2[nH]c(C)c(N=Nc3cccc(-c4cccc(C(=O)O)c4)c3O)c2=O)cc1C | low class |

Q: Please classify: CC(C)(C)c1nc2c3cc[nH]c(=O)c3c3cc(F)ccc3c2[nH]1
Ans: high class

Q: In plain terms, what class is Cc1ccc2nc(NCCN)c3ncc(C)n3c2c1 ?
Ans: high class

Q: For O=c1c(O)c(-c2ccc(O)c(O)c2)oc2cc(O)ccc12 , which Z-AUC bin applies?
Ans: low class

Q: Tag the class for Cc1cc(C(=O)NOCCO)c(Nc2ccc(I)cc2F)n(C)c1=O
Ans: low class

Q: Which band does C#Cc1cccc(Nc2ncnc3cc(OCCOC)c(OCCO)cc23)c1 fall in?
Ans: middle class

Q: Place this compound in its band: CCc1nc(-c2cccc(C)c2)c(-c2ccnc(NC(=O)c3ccccc3)c2)s1
Ans: high class

* * *

- assay procedure: qHTS profiling for inhibitors of Plasmodium falciparum (3D7) proliferation (AID 743322);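 further: infected erythrocytes exposed to compound for 72 h before lysis; 100% = DMSO vehicle wells and 0% = 0.29 µM artemisinin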
- measurement setup: P. falciparum 3D7 proliferation; at 28.7 µM (top of the series)
Starred links: 1 amine or outer side, 2 acyl side, 3 side chain; linkers in the order of their positions; H or OH if unused. Positions of bridges follow the written chain, without caps; N, C: chain ends. Non-standard residues stand in square brackets, D forms with d. Residues, ends and D or L forms follow the SMILES beside them. Chains are numbered I, II in the order given. Actinocin(9to1) = Cc1c2oc3c(C)ccc(C(=O)[*:1])c3nc-2c(C(=O)[*:2])c(N)c1=O; NMeV = CN[CH](C(=O)O)C(C)C; Sar = CNCC(=O)O
readout type: remaining parasite growth % (stronger effect = lower value) (%)
Give your result in % as a bare value.

| compound | measured result |
| --- | --- |
| COC(=O)C1C2CC3c4[nH]c5cc(OC)ccc5c4CCN3CC2CC(OC(=O)c2cc(OC)c(OC)c(OC)c2)C1OC (stereo not drawn) | 1.2 |
| COc1cc(C=CC(=O)CC(=O)C=Cc2ccc(O)c(OC)c2)ccc1O | -1.44 |
| Cc1c2oc3c(C)ccc(C(=O)NC4C(=O)NC(C(C)C)C(=O)N5CCCC5C(=O)N(C)CC(=O)N(C)C(C(C)C)C(=O)OC4C)c3nc-2c(C(=O)NC2C(=O)NC(C(C)C)C(=O)N3CCCC3C(=O)N(C)CC(=O)N(C)C(C(C)C)C(=O)OC2C)c(N)c1=O (stereo not drawn) (I: TVP[Sar][NMeV] / II: TVP[Sar][NMeV]; ester I:1-I:C, II:1-II:C; linker I:N-II:N via Actinocin(9to1); configuration not given here) | -4 |
| NC(=O)c1ncn([C@@H]2O[C@H](CO)[C@@H](O)[C@@H]2O)c1N | 94.2 |
| O=C(O)CCCCC(CCSCc1ccccc1)SCc1ccccc1 (stereo not drawn) | 84 |
| COc1cc(C)c(Sc2cnc(NC(=O)c3ccc(CNC(C)C(C)(C)C)cc3)s2)cc1C(=O)N1CCN(C(C)=O)CC1 (stereo not drawn) | 8.84 |
| N#Cc1ccc(COC[C@H]2O[C@@H](n3c(NCc4ccc(Cl)c(Cl)c4)nc4c(N)ncnc43)[C@@H](O)[C@@H]2O)cc1 | 37.7 |

Turning now to a further record.
Form field remaining parasite growth % (stronger effect = lower value), entry c1ccc2c(Oc3nc(Nc4ccc(N5CCOCC5)cc4)c4ncn(C5CCCCC5)c4n3)cccc2c1 : -0.456

* * *

- System: Zika virus NS2B-NS3 protease (linked construct)
- assay procedure: Primary screen NINDS Rhodamine qHTS for Zika virus inhibitors (AID 1347160); further: nearly all actives have a fitted effect of over 55% in size
- measurement setup: purified NS2B-NS3 protease, Rhodamine110 substrate fluorescence; series mostly up to 57.1 µM
Inconclusive results are not listed. Activity calls are given as the source filed them. Calls follow the shape of the dose curve; as a rule, active = well fitted inhibition curve with a large enough effect; inconclusive = small, poorly fitted or top-dose-only effect; inactive = no such curve, though single readings can be large or run the other way.
Just give me one of these, please: active, inactive

| compound | answer label |
| --- | --- |
| CCc1nc(-c2cccc(C)c2)c(-c2ccnc(NC(=O)c3ccccc3)c2)s1 | inactive |
| C[N+]1(C)[C@@H]2C[C@@H](OC(=O)C(O)(c3cccs3)c3cccs3)C[C@H]1[C@@H]1O[C@@H]12 | inactive |
| OCCNC1CCCc2c1[nH]c1ccc(-c3ccccc3)cc21 (stereo unspecified) | inactive |
| Cc1coc2c1C(=O)C(=O)c1c-2ccc2c(C)cccc12 | active |

Q: // outcome(item) with item = Cn1cnc2c(F)c(Nc3ccc(Br)cc3F)c(C(=O)NOCCO)cc21
Ans: inactive

Q: Could you check what this test reported for Cc1cnc(Nc2ccc(CN3CCOCC3)cc2)nc1Nc1cccc(S(=O)(=O)NC(C)(C)C)c1 ?
Ans: inactive

Q: Would you mind telling me which call this test gave CCOc1cc2c(c(F)c1OCC)C(=N)N(CC(=O)c1cc(N3CCOCC3)c(OC)c(C(C)(C)C)c1)C2 ?
Ans: inactive

Q: Outcome logged for C[C@H](O)[C@@H]1C(=O)N2C(C(=O)O)=C(S[C@@H]3CN[C@H](CNS(N)(=O)=O)C3)[C@@H](C)[C@@H]12 in this assay:
Ans: inactive

Q: What did the test return for COc1ccc(S(=O)(=O)Nc2cccnc2Nc2ccc(O)cc2)cc1 ?
Ans: inactive

Q: Outcome logged for CS(=O)(=O)N1CCc2c(-c3cnc(N)nc3)nc(N3CCOCC3)nc21 in this assay:
Ans: inactive

Q: Status in this test for CC(C)C[C@H](NC(=O)[C@@H](NC(=O)c1cccc(-c2ccccc2)n1)[C@@H](C)O)B(O)O ?
Ans: inactive

Q: Recorded call for Cc1ncc(-c2ccnc(Nc3ccc(S(C)(=O)=O)cc3)n2)n1C(C)C ?
Ans: inactive

* * *

- assay procedure: qHTS Screen of the MIPE 4.0 Collection Against Ewings Sarcoma (RDES) (AID 1259252); further: nearly all actives have a fitted effect of over 35% in size
- measurement setup: RD-ES Ewing sarcoma viability, CellTiter-Glo, 48 h; series mostly up to 45.8 µM
Results filed as inconclusive are left out. Active and inactive are the calls of the source. Calls follow the shape of the dose curve; as a rule, active = well fitted inhibition curve with a large enough effect; inconclusive = small, poorly fitted or top-dose-only effect; inactive = no such curve, though single readings can be large or run the other way.
Answer with one of the outcomes 1 (yes) (active), 0 (no) (inactive)

These solved cases illustrate the format of a correct answer.
| compound | answer label |
| --- | --- |
| COc1cc(C)c(Sc2cnc(NC(=O)c3ccc(CNC(C)C(C)(C)C)cc3)s2)cc1C(=O)N1CCN(C(C)=O)CC1 (stereo not given) | 1 (yes) |
| O=C(O)CCCCCC(=O)NN=C1CCCC1 | 0 (no) |
| O=C1NCCc2[nH]c(-c3ccncc3)cc21 | 1 (yes) |

Q: # lookup: test call for CN(C)c1ccc(C(=O)NCCCCCCC(=O)NO)cc1
Ans: 1 (yes)

Q: Which outcome did this test record for the compound COC(=O)[C@@H]1CC2=CC(=O)CC[C@]2(C)[C@@]23O[C@@H]2C[C@@]2(C)[C@H](CC[C@@]24CCC(=O)O4)[C@@H]13 ?
Ans: 0 (no)

Q: Per the records of this test, what outcome belongs to N#Cc1c(NC(=O)c2cccc3ccccc23)sc2c1CCCC2 ?
Ans: 1 (yes)

Q: Fill in: this test's call for C[N+]1(C)[C@@H]2C[C@@H](OC(=O)C(O)(c3cccs3)c3cccs3)C[C@H]1[C@@H]1O[C@@H]12 is ___
Ans: 0 (no)

Q: Record lookup: outcome of this test for Cn1cc(-c2ccc3ncc(Cc4ccc5ncccc5c4)n3n2)cn1 ?
Ans: 0 (no)

Q: Lab log entry: CC(C)NC[C@@H](C(=O)N1CCN(c2ncnc3c2[C@H](C)C[C@H]3O)CC1)c1ccc(Cl)cc1 — outcome as called in the assay?
Ans: 1 (yes)

Q: So what was the verdict on C[C@@H](Oc1ccc2[nH]nc(C=Cc3cnn(CCO)c3)c2c1)c1c(Cl)cncc1Cl in this test?
Ans: 1 (yes)

* * *

- assay procedure: qHTS of pediatric cancer cell lines to identify multiple opportunities for drug repurposing: Confirmatory screen for BT-12 cells (AID 1347112);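 further: viability read after 48 h of compound exposure; nearly all actives have a fitted effect of over 55% in size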
- measurement setup: BT-12 rhabdoid tumor cells, viability; series mostly up to 45.9 µM
Records with an inconclusive call do not appear. Activity calls are given as the source filed them. Calls come from the whole dose curve; as a rule, active = well fitted cell-killing curve with a large enough effect; inconclusive = small, poorly fitted or top-dose-only effect; inactive = flat fitted curve, though single readings scatter.
Choose the fitting class; nothing outside active, inactive is accepted.

| structure | answer label |
| --- | --- |
| CNC(=O)c1ccc(Nc2cc(Nc3ccccc3S(=O)(=O)C(C)C)c3cc[nH]c3n2)nc1 | active |
| CCCCC(=O)O[C@]1(C(=O)CO)[C@@H](C)C[C@H]2[C@@H]3CCC4=CC(=O)C=C[C@]4(C)[C@@]3(F)[C@@H](O)C[C@@]21C | inactive |
| Cn1cc(CNCC2CCN(c3ncc(C(=O)NO)cn3)CC2)c2ccccc21 | active |

Q: What classification did COc1cc([C@@H]2c3cc4c(cc3[C@@H](O[C@@H]3O[C@@H]5CO[C@@H](c6cccs6)O[C@@H]5[C@H](O)[C@@H]3O)[C@H]3COC(=O)[C@H]23)OCO4)cc(OC)c1O end up with in this test?
Ans: active
